// values below are reported Span
System: Clytia MIHR
Experiment: Dose–response curves of Clytia MIHR, luminescence (CHO-K1 cells, Gα-16, GFP-apoaequorin)
Type: cell-based, Clytia hemisphaerica
Details: first dataset; best-fit value (luminescence)
Peptide text beside a SMILES is read from it.
readout.kind: Span

N=C(N)NCCC[C@H](NC(=O)[C@@H]1CCCN1C(=O)[C@@H](N)Cc1c[nH]c2ccccc12)C(=O)N1CCC[C@H]1C(N)=O [WPRPa] (H-WPRP-NH2; N-terminus assumed)
46105
N=C(N)NCCC[C@H](NC(=O)[C@@H]1CCCN1C(=O)[C@@H](N)CCCNC(=N)N)C(=O)N[C@@H](Cc1ccc(O)cc1)C(N)=O [RPRYa] (H-RPRY-NH2; N-terminus assumed)
60319
N=C(N)NCCC[C@H](NC(=O)[C@@H]1CCCN1C(=O)[C@@H](N)CCCNC(=N)N)C(=O)NCC(N)=O [RPRGa] (H-RPRG-NH2; N-terminus assumed)
80378
C[C@H](NC(=O)[C@H](CCCNC(=N)N)NC(=O)[C@@H]1CCCN1C(=O)[C@@H](N)Cc1c[nH]c2ccccc12)C(N)=O [WPRAa] (H-WPRA-NH2; N-terminus assumed)
50384

---

// values below are reported EC50
Tested on: Clytia MIHR
Experiment: Dose–response curves of Clytia MIHR, luminescence (CHO-K1 cells, Gα-16, GFP-apoaequorin)
Format: cell-based, Clytia hemisphaerica
Conditions: dataset/experiment 1; four-parameter fit, variable slope; triplicate
Peptide text beside a SMILES is read from it.
readout.kind: EC50 (nM)

N=C(N)NCCC[C@H](NC(=O)[C@@H]1CCCN1C(=O)[C@@H](N)CCCNC(=N)N)C(=O)N[C@@H](Cc1ccc(O)cc1)C(N)=O [RPRYa] (H-RPRY-NH2; N-terminus assumed)
57.7
C[C@H](NC(=O)[C@H](CCCNC(=N)N)NC(=O)[C@@H]1CCCN1C(=O)[C@@H](N)Cc1c[nH]c2ccccc12)C(N)=O [WPRAa] (H-WPRA-NH2; N-terminus assumed)
140
N=C(N)NCCC[C@H](NC(=O)[C@@H]1CCCN1C(=O)[C@@H](N)CCCNC(=N)N)C(=O)NCC(N)=O [RPRGa] (H-RPRG-NH2; N-terminus assumed)
724
N=C(N)NCCC[C@H](NC(=O)[C@@H]1CCCN1C(=O)[C@@H](N)Cc1c[nH]c2ccccc12)C(=O)N1CCC[C@H]1C(N)=O [WPRPa] (H-WPRP-NH2; N-terminus assumed)
220

---

// values below are reported LogEC50
Tested on: Clytia MIHR
Test: Dose–response curves of Clytia MIHR, luminescence (CHO-K1 cells, Gα-16, GFP-apoaequorin)
Assay type: cell-based, Clytia hemisphaerica
Settings: second dataset; best-fit value
Peptide text beside a SMILES is read from it.
readout.kind: LogEC50

N=C(N)NCCC[C@H](NC(=O)[C@@H]1CCCN1C(=O)[C@@H](N)Cc1c[nH]c2ccccc12)C(=O)N1CCC[C@H]1C(N)=O [WPRPa] (H-WPRP-NH2; N-terminus assumed)
-6.033
N=C(N)NCCC[C@H](NC(=O)[C@@H]1CCCN1C(=O)[C@@H](N)CCCNC(=N)N)C(=O)N[C@@H](Cc1ccc(O)cc1)C(N)=O [RPRYa] (H-RPRY-NH2; N-terminus assumed)
-6.785
N=C(N)NCCC[C@H](NC(=O)[C@@H]1CCCN1C(=O)[C@@H](N)CCCNC(=N)N)C(=O)NCC(N)=O [RPRGa] (H-RPRG-NH2; N-terminus assumed)
-5.656
C[C@H](NC(=O)[C@H](CCCNC(=N)N)NC(=O)[C@@H]1CCCN1C(=O)[C@@H](N)Cc1c[nH]c2ccccc12)C(N)=O [WPRAa] (H-WPRA-NH2; N-terminus assumed)
-6.027

---

Test system: Clytia MIHR
Assay: Dose–response curves of Clytia MIHR, luminescence (CHO-K1 cells, Gα-16, GFP-apoaequorin)
Type: cell-based, Clytia hemisphaerica
Conditions: log(agonist) vs. response, variable slope (four parameters), fit of third dataset
Peptide text beside a SMILES is read from it.
readout.kind: HillSlope (best-fit value)

N=C(N)NCCC[C@H](NC(=O)[C@@H]1CCCN1C(=O)[C@@H](N)Cc1c[nH]c2ccccc12)C(=O)N1CCC[C@H]1C(N)=O [WPRPa] (H-WPRP-NH2; N-terminus assumed)
1.078
C[C@H](NC(=O)[C@H](CCCNC(=N)N)NC(=O)[C@@H]1CCCN1C(=O)[C@@H](N)Cc1c[nH]c2ccccc12)C(N)=O [WPRAa] (H-WPRA-NH2; N-terminus assumed)
1.48
N=C(N)NCCC[C@H](NC(=O)[C@@H]1CCCN1C(=O)[C@@H](N)CCCNC(=N)N)C(=O)N[C@@H](Cc1ccc(O)cc1)C(N)=O [RPRYa] (H-RPRY-NH2; N-terminus assumed)
1.159
N=C(N)NCCC[C@H](NC(=O)[C@@H]1CCCN1C(=O)[C@@H](N)CCCNC(=N)N)C(=O)NCC(N)=O [RPRGa] (H-RPRG-NH2; N-terminus assumed)
1.139

---

// values below are reported Top
Tested on: Clytia MIHR
Assay: Dose–response curves of Clytia MIHR, luminescence (CHO-K1 cells, Gα-16, GFP-apoaequorin)
Assay type: cell-based, Clytia hemisphaerica
Settings: second dataset; best-fit value (luminescence)
Peptide text beside a SMILES is read from it.
readout.kind: Top

C[C@H](NC(=O)[C@H](CCCNC(=N)N)NC(=O)[C@@H]1CCCN1C(=O)[C@@H](N)Cc1c[nH]c2ccccc12)C(N)=O [WPRAa] (H-WPRA-NH2; N-terminus assumed)
23814
N=C(N)NCCC[C@H](NC(=O)[C@@H]1CCCN1C(=O)[C@@H](N)Cc1c[nH]c2ccccc12)C(=O)N1CCC[C@H]1C(N)=O [WPRPa] (H-WPRP-NH2; N-terminus assumed)
23599
N=C(N)NCCC[C@H](NC(=O)[C@@H]1CCCN1C(=O)[C@@H](N)CCCNC(=N)N)C(=O)N[C@@H](Cc1ccc(O)cc1)C(N)=O [RPRYa] (H-RPRY-NH2; N-terminus assumed)
29369
N=C(N)NCCC[C@H](NC(=O)[C@@H]1CCCN1C(=O)[C@@H](N)CCCNC(=N)N)C(=O)NCC(N)=O [RPRGa] (H-RPRG-NH2; N-terminus assumed)
36059

---

Tested on: Clytia MIHR
Assay: Dose–response curves of Clytia MIHR, luminescence (CHO-K1 cells, Gα-16, GFP-apoaequorin)
Format: cell-based, Clytia hemisphaerica
Conditions: first dataset; best-fit value
Description: The Clytia MIH amidated peptides are produced from two precursor genes Che-pp4 (generating multiple copies of WPRAamide, WPRYamide, and WPRPamide) and Che-pp1 (multiple copies of WPRPamide and RPRGamide). Cell culture GPCR ligand response assays were performed as described. […] Luminescence was recorded for 45 seconds in a plate reader (BioTek Synergy Mx or Synergy H4; BioTek, Winooski, VT). Data were integrated over the 45-second measurement period and recorded as technical triplicates in each case. […]
Peptide text beside a SMILES is read from it.
// values below are reported HillSlope
readout.kind: HillSlope

N=C(N)NCCC[C@H](NC(=O)[C@@H]1CCCN1C(=O)[C@@H](N)CCCNC(=N)N)C(=O)NCC(N)=O [RPRGa] (H-RPRG-NH2; N-terminus assumed)
1.15
N=C(N)NCCC[C@H](NC(=O)[C@@H]1CCCN1C(=O)[C@@H](N)CCCNC(=N)N)C(=O)N[C@@H](Cc1ccc(O)cc1)C(N)=O [RPRYa] (H-RPRY-NH2; N-terminus assumed)
1.301
C[C@H](NC(=O)[C@H](CCCNC(=N)N)NC(=O)[C@@H]1CCCN1C(=O)[C@@H](N)Cc1c[nH]c2ccccc12)C(N)=O [WPRAa] (H-WPRA-NH2; N-terminus assumed)
1.505
N=C(N)NCCC[C@H](NC(=O)[C@@H]1CCCN1C(=O)[C@@H](N)Cc1c[nH]c2ccccc12)C(=O)N1CCC[C@H]1C(N)=O [WPRPa] (H-WPRP-NH2; N-terminus assumed)
1.128

---

Test system: Clytia MIHR
Experiment: Dose–response curves of Clytia MIHR, luminescence (CHO-K1 cells, Gα-16, GFP-apoaequorin)
Type: cell-based, Clytia hemisphaerica
Conditions: first dataset; best-fit value (luminescence)
Peptide text beside a SMILES is read from it.
readout.kind: Top

N=C(N)NCCC[C@H](NC(=O)[C@@H]1CCCN1C(=O)[C@@H](N)Cc1c[nH]c2ccccc12)C(=O)N1CCC[C@H]1C(N)=O [WPRPa] (H-WPRP-NH2; N-terminus assumed)
47040
N=C(N)NCCC[C@H](NC(=O)[C@@H]1CCCN1C(=O)[C@@H](N)CCCNC(=N)N)C(=O)N[C@@H](Cc1ccc(O)cc1)C(N)=O [RPRYa] (H-RPRY-NH2; N-terminus assumed)
61316
C[C@H](NC(=O)[C@H](CCCNC(=N)N)NC(=O)[C@@H]1CCCN1C(=O)[C@@H](N)Cc1c[nH]c2ccccc12)C(N)=O [WPRAa] (H-WPRA-NH2; N-terminus assumed)
51660
N=C(N)NCCC[C@H](NC(=O)[C@@H]1CCCN1C(=O)[C@@H](N)CCCNC(=N)N)C(=O)NCC(N)=O [RPRGa] (H-RPRG-NH2; N-terminus assumed)
82566

Reference for the values: paper PMC7053711
